EXPERIMENTAL SYSTEM: GIPC2, Q8TF65
Sequence (Q8TF65 112-203): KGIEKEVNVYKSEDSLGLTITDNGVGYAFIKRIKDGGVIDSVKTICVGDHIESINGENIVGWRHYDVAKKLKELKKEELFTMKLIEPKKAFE
EXPERIMENT SUMMARY: holdup assay
Design: key: below the threshold = too weak to quantify, mostly under pKd 3.1 to 4
EXPERIMENTAL PARAMETERS: plain residues with an end cap or a label only (N-terminal biotin on a linker: ado-ado)
I'd be grateful if you could share measured pKd for these entries.
Respond numerically, and do not add a unit to the figure.

pKd in this record for TETASVCTKV [SLC23A1, Q9UHI7] : 3.6

pKd in this record for GFGEERESIL [KIDINS220, Q9ULH0] : 3.87
